- System: S180 (mouse ascites tumor cells)
- Protocol Notes: In vitro anti-tumor cell proliferation activity (MTT method), S180
- Type: cell-based
- Condition Info: Mus musculus, S-180, 48 h, read-out: IC50 values of in vitro anti-cell proliferation activity
Listed here are molecules together with their documented IC50.

>>> result_value("N=C(NCCC[C@H](Nc1ccc([N+](=O)[O-])c2nonc12)C(=O)OCc1ccccc1)N[N+](=O)[O-] [ZD-A, NBD-Arg(NO2)-OBzl]")
"> 100 µM"

Request body: readout IC50, system S180 (mouse ascites tumor cells), query NCCC[C@H](Nc1ccc([N+](=O)[O-])c2nonc12)C(=O)NCc1ccccc1 [ZD-E] . Return the value.
66 µM
